Origin of values: ChEMBL document CHEMBL1127476

test: The pKa value in 30% EtOH/H2O
Type: physicochemical
readout.label: pKa
Keep it simple and answer with nothing but the number.

compound	pKa
COCCOCCN(CCOC)CCC1CNc2cc(S(N)(=O)=O)sc2S1(=O)=O (stereo not given)	6.55
NS(=O)(=O)c1cc2c(s1)S(=O)(=O)CC(=O)N2	7.43

Fill blank: measured pKa of the compound NS(=O)(=O)c1cc2c(s1)SC(CCO)CN2 (stereo not given) is ____. 9.62

Fill blank: measured pKa of the compound NS(=O)(=O)c1cc2c(s1)SC(CC(=O)O)C(=O)N2 (stereo not given) is ____. 4.3

Fill blank: measured pKa of the compound NS(=O)(=O)c1cc2c(s1)S(=O)(=O)CCN2 is ____. 8.8
